Data provenance: patent US20090023718A1

ASSAYED SYSTEM: histone deacetylase, subtype 1 (HDAC1) (Homo sapiens, UniProt Q13547)
Construct: Flag; made in house
Sequence (Q13547 whole entry): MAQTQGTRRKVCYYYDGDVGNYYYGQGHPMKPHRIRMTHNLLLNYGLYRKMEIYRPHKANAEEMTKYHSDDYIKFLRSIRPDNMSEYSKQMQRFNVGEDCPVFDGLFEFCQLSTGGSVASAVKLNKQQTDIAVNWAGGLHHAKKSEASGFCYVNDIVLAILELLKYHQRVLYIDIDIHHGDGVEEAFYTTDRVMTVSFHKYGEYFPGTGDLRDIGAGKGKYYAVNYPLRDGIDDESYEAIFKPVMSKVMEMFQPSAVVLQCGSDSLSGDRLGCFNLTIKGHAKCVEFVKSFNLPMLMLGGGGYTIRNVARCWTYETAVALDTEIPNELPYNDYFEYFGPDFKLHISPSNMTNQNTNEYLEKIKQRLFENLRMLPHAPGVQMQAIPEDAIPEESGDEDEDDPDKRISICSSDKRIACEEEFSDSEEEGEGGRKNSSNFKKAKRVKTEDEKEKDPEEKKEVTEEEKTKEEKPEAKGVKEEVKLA
PROTOCOL SUMMARY: HDAC1-Flag assay (in vitro fluorescent deacetylation assay)
Assay type: biochemical
TEST PARAMETERS: Table 1, compounds of formula II; epitope-tagged human HDAC1 complex, substrate at Km; mean ± spread (N); read-out: HDAC Inhibition (IC50) nm
Measured IC50 accompanies every entry in the list below.

>  <COMPOUND STRING>
O=C(CCCCCCC(=O)N(CC(=O)NCCc1ccccc1)CC(=O)NCCc1ccccc1)NO

>  <IC50 (nM)>
231

$$$$
>  <COMPOUND STRING>
O=C(CCCCCC(=O)N(CC(=O)Nc1ccc2c(c1)OCCO2)CC(=O)Nc1ccc2c(c1)OCCO2)NO

>  <IC50 (nM)>
19

$$$$
>  <COMPOUND STRING>
O=C(CCCCCC(=O)N(CC(=O)Nc1nc2ccc(Cl)cc2s1)CC(=O)Nc1nc2ccc(Cl)cc2s1)NO

>  <IC50 (nM)>
10.6

$$$$
>  <COMPOUND STRING>
O=C(CCCCCC(=O)N(CC(=O)NC1CCCCC1)CC(=O)NC1CCCCC1)NO

>  <IC50 (nM)>
76

$$$$
>  <COMPOUND STRING>
O=C(CCCCCC(=O)N(CC(=O)Nc1ccc(C(F)(F)F)cc1)CC(=O)Nc1ccc(C(F)(F)F)cc1)NO

>  <IC50 (nM)>
89.5

$$$$
>  <COMPOUND STRING>
O=C(CCCCCC(=O)N(CC(=O)Nc1nc2ccc(F)cc2s1)CC(=O)Nc1nc2ccc(F)cc2s1)NO

>  <IC50 (nM)>
31.5

$$$$
>  <COMPOUND STRING>
O=C(CCCCCC(=O)N(CC(=O)Nc1cccc2cccnc12)CC(=O)Nc1cccc2cccnc12)NO

>  <IC50 (nM)>
26.5

$$$$
>  <COMPOUND STRING>
O=C(CCCCCC(=O)N(CC(=O)NCCc1ccccc1)CC(=O)Nc1ccccc1)NO

>  <IC50 (nM)>
26

$$$$
